Origin of measurements: paper PMC9253517

# Target Desc: SARS-CoV-2 Wuhan-Hu-1 RBD (SARS-CoV-2, Wuhan-Hu-1 (GenBank …, UniProt P0DTC2))
# Method: cell-based or functional assay
Please go through the items and note down their neutralisation IC50, Wuhan-Hu-1 pseudovirus.
One number for each entry, in ng/mL.

Reference set (2 entries):
Note to self: neutralisation IC50, Wuhan-Hu-1 pseudovirus recorded for JR186 (antibody, V domains shown) VH: EVQLLESGGGLIPPGGSLRLSCAASGFTFSSYAMSWVRQAPGKGLEWVSGISGSGTDTDEGDSVKGRFTISRDNSKNTLWLQIHTLRVEDTAIYYCAKASRGYVSNFDYFDRWGQGTLVTVSS VL: SYELTQPPSVSVAPGETAKITCGGDNIGTKSVHWYLQKAGQAPVLVISDDSNRPSGIPERFSGSNSGNTATLTINRVEGGDEADYYCQVWTSFGAGTRVTVI was 74.2

Note to self: neutralisation IC50, Wuhan-Hu-1 pseudovirus recorded for JR057 (antibody, V domains shown) VH: VQLVESGGGVVQPGRSLRLSCAASGFTFSSYAMHWVRQAPGKGLEWVALISYDGNNKYYADSVKGRFTVSRDNSKNTLFLQMNSLRAEDTAVYYCARDNEVSAAFDFWGQGTMVTVSS VL: EIVLTQSPGTLSLSPGERATLSCRASQSLSSTYLAWYQHKPGQAPRLLIYAASSRATDIPDRFSGSGSGTDFTLTISRLEPEDFAVYYCQQYGGSPMCSFGQGTKLEIK was 14.2

Note: attention shifts to another entry.
Note to self: neutralisation IC50, Wuhan-Hu-1 pseudovirus recorded for JR086 (antibody, V domains shown) VH: QVQLVQSGAEVKKPGASVKVSCKASGYTFTGYYMHWVRQAPGQGLEWMGWINPISGATNYAQKFQGGVTMTRDTSISTAYMELSRLRSDDTAVYYCARVNHIVVVTAIDPIYGMDVWGQGTTVTVSS VL: QSALTQPASVSGSPGQSITISCTGTSSDVGGYNYVSWYQQHPGKAPKLMIYEVSNRPSGVSNRFSGSKSGNTASLTISGLQAEDEADYYCSSYTSSSTLYYVFGTGTKVTVL was 35.8
